normalized RNA/DNA level with ligand (log10): recorded values
B1: library; a variant is named by its letters at N, in order (parent)
chain: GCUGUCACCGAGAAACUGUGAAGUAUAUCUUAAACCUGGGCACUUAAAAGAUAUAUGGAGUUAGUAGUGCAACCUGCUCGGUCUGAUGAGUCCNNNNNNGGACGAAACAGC

variants of: B1; assay: normalized RNA/DNA level with ligand (relative to sTRSVctl = 100) (log10 (% of sTRSVctl)); HEK293T; ligand: cyclic di-GMP (c-di-GMP-II aptamer); ligand concentration (+) RNA-Seq: 1 mM; higher = less ribozyme self-cleavage, higher mRNA level; settings: reporter: mCherry (pCS4076), ligand present: yes
Output spec: single numeric token, no unit.

Solved entries:
The reported value for GCUGUCACCGAGAAACUGUGAAGUAUAUCUUAAACCUGGGCACUUAAAAGAUAUAUGGAGUUAGUAGUGCAACCUGCUCGGUCUGAUGAGUCCUAUACCGGACGAAACAGC [UAUACC] in terms of normalized RNA/DNA level with ligand (log10) is 1.86

The reported value for GCUGUCACCGAGAAACUGUGAAGUAUAUCUUAAACCUGGGCACUUAAAAGAUAUAUGGAGUUAGUAGUGCAACCUGCUCGGUCUGAUGAGUCCUUUCACGGACGAAACAGC [UUUCAC] in terms of normalized RNA/DNA level with ligand (log10) is 1.84

The reported value for GCUGUCACCGAGAAACUGUGAAGUAUAUCUUAAACCUGGGCACUUAAAAGAUAUAUGGAGUUAGUAGUGCAACCUGCUCGGUCUGAUGAGUCCCCGCGCGGACGAAACAGC [CCGCGC] in terms of normalized RNA/DNA level with ligand (log10) is 1.87

The reported value for GCUGUCACCGAGAAACUGUGAAGUAUAUCUUAAACCUGGGCACUUAAAAGAUAUAUGGAGUUAGUAGUGCAACCUGCUCGGUCUGAUGAGUCCAGGACAGGACGAAACAGC [AGGACA] in terms of normalized RNA/DNA level with ligand (log10) is 1.63

The reported value for GCUGUCACCGAGAAACUGUGAAGUAUAUCUUAAACCUGGGCACUUAAAAGAUAUAUGGAGUUAGUAGUGCAACCUGCUCGGUCUGAUGAGUCCCAUUUUGGACGAAACAGC [CAUUUU] in terms of normalized RNA/DNA level with ligand (log10) is 1.76

The reported value for GCUGUCACCGAGAAACUGUGAAGUAUAUCUUAAACCUGGGCACUUAAAAGAUAUAUGGAGUUAGUAGUGCAACCUGCUCGGUCUGAUGAGUCCAGUAACGGACGAAACAGC [AGUAAC] in terms of normalized RNA/DNA level with ligand (log10) is 1.79

The reported value for GCUGUCACCGAGAAACUGUGAAGUAUAUCUUAAACCUGGGCACUUAAAAGAUAUAUGGAGUUAGUAGUGCAACCUGCUCGGUCUGAUGAGUCCCGACAUGGACGAAACAGC [CGACAU] in terms of normalized RNA/DNA level with ligand (log10) is 1.63

The reported value for GCUGUCACCGAGAAACUGUGAAGUAUAUCUUAAACCUGGGCACUUAAAAGAUAUAUGGAGUUAGUAGUGCAACCUGCUCGGUCUGAUGAGUCCGCAGGGGGACGAAACAGC [GCAGGG] in terms of normalized RNA/DNA level with ligand (log10) is 1.74

***
The reported value for GCUGUCACCGAGAAACUGUGAAGUAUAUCUUAAACCUGGGCACUUAAAAGAUAUAUGGAGUUAGUAGUGCAACCUGCUCGGUCUGAUGAGUCCCCUGUCGGACGAAACAGC [CCUGUC] in terms of normalized RNA/DNA level with ligand (log10) is 1.87

The reported value for GCUGUCACCGAGAAACUGUGAAGUAUAUCUUAAACCUGGGCACUUAAAAGAUAUAUGGAGUUAGUAGUGCAACCUGCUCGGUCUGAUGAGUCCAUCCAUGGACGAAACAGC [AUCCAU] in terms of normalized RNA/DNA level with ligand (log10) is 1.81

The reported value for GCUGUCACCGAGAAACUGUGAAGUAUAUCUUAAACCUGGGCACUUAAAAGAUAUAUGGAGUUAGUAGUGCAACCUGCUCGGUCUGAUGAGUCCCGCCACGGACGAAACAGC [CGCCAC] in terms of normalized RNA/DNA level with ligand (log10) is 1.84
